- Test system: HFL1
- assayName: Cytotoxicity against human HFL1 cells assessed as reduction in cell viability incubated for 24 hrs under dark condition by MTT assay
- Type: cell-based
- appliedConditions: HFL1, 24 h
readout: IC50 (µM)

1) O=c1c(O)c(-c2ccccc2)oc2cc3ccccc3cc12
65.1

All figures here come from ChEMBL document CHEMBL5034049.
